Percent cleavage reference
biological target: AxCT mask27 EGFR EH104 L072 version 1
Give your result in % as a bare value.

{"Protein": "MMP-12 (protein) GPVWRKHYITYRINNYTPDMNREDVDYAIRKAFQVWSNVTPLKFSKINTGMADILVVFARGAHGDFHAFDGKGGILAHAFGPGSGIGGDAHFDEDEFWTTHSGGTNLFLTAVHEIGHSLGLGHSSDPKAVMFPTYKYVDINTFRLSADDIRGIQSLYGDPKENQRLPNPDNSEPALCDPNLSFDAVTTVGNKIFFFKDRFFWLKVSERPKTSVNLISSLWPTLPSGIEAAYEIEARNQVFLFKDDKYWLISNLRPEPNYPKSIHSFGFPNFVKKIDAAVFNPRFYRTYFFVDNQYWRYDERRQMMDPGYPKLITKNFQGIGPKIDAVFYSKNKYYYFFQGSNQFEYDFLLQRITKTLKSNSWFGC", "Percent cleavage, %": 48}

Attention now shifts to the item below.
// query Supply reported Percent cleavage belonging to this protein: MMP-7 (protein) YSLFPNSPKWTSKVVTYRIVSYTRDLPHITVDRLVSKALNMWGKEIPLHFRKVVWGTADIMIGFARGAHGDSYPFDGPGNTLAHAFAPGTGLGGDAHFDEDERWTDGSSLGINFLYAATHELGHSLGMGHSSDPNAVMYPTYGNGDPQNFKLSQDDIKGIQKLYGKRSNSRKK
// result 0
